# STUDY_TARGET: HU (wt*, without His-tag) (Acinetobacter baumannii SK17, UniProt A0ABX6CHP0)
# TEST_PROTOCOL: BLI; BLI: 30 mM Tris pH 7.5, 100 mM NaCl, 0.02% Tween20, 0.5 mg/ml BSA, 25°C; EMSA: same buffer, 37°C 1 h, 250 ng DNA in 10 µl, 1% agarose in TAE; AFM: 10 mM HEPES pH 7.5, 4 mM MgCl2
# ASSAY_CONDITIONS: protein: recombinant; tags: none; N-terminal GA remains after TEV cleavage; chain copies: 2; label: 5'-biotin on strand 1; (only one strand printed)

BINDER	Kd, µM
biotin-labeled dsDNA (BLI) (dsDNA) DNA 1: ATTAATATTTTCTTAAACTAATTTAAAAT DNA 2: ATTTTAAATTAGTTTAAGAAAATATTAAT	0.276
